Measured values drawn from the supplement of paper PMC12645437 for this set.

- system: T1, CRBN, Q96SW2;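 also: pooled lentiviral library of zinc finger degron-EGFP fusions in mCherry-positive Jurkat cells, FACS-sorted after compound exposure, with degron abundance counted by next-generation sequencing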
- T1 chain: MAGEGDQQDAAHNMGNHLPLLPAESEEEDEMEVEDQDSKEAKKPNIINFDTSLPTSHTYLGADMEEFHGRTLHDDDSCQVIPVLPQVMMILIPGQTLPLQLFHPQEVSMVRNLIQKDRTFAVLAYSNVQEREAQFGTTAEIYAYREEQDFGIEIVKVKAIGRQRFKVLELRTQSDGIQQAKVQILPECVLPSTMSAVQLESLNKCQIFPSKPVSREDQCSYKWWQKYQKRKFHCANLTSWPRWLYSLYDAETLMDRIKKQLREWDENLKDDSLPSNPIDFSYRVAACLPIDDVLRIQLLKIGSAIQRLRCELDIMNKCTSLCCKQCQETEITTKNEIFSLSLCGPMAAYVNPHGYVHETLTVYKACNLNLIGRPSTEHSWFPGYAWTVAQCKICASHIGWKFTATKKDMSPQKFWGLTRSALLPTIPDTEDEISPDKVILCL
- run_description: log2 fold change of degron read counts, EGFP-low vs EGFP+ sorted cells (limma voom), compound-induced degradation; higher = more compound-induced degradation of the degron-EGFP fusion; degrons are variants of IKZF1/3 zinc finger 2; compound dose not given here
- run_conditions: Jurkat; 18 h; compound: thalidomide
Whole data set: some 8,300 sequences, median “log2 fold change of degron read counts, EGFP-low vs EGFP+ sorted cells (limma voom), compound-induced degradation” near -1.1, cut for the highest 2% near 3.2. Shown is part of a subset that was picked to be rich in the highest values.
endpoint: log2 fold change of degron read counts
Provide a numeric answer; units are not to be included.

Query :: Given FFCNICGAKFTQKGNLLRHIKL [46F_47F_49N_50I_52G_53A_54K_55F_67L_, Q9UKT9] , state its recorded log2 fold change of degron read counts.
Result :: -0.6

Query :: Item: FTCEQCGACFTQKGNLLRHIKL [46F_47T_49E_50Q_52G_53A_54C_55F_67L_, Q9UKT9]
Result :: 0.182

Query :: Item: FKCNICGAWFTQKGNLLRHIKL [46F_47K_49N_50I_52G_53A_54W_55F_67L_, Q9UKT9]
Result :: -1.78

Query :: Item: FRCSVCGHRFTQKGNLLRHIKL [46F_47R_49S_50V_52G_53H_54R_55F_67L_, Q9UKT9]
Result :: -2.23
